Data origin, for the record: ChEMBL document CHEMBL1949660

Test: Clearance in rat at 1 mg/kg, iv
Assay type: ADME, organism-based
Parameters: dose 1 mg/kg, route intravenous
Details: in vivo
experimental endpoint: clearance (L/h/kg)
One number for each entry, in L/h/kg.

>>> df
                            chemical_smiles  experimental_endpoint  test_value
0  O=c1ccc(-c2ccc(OC3CCN(C4CCC4)CC3)cc2)n[nH]1              clearance        0.78
1  C[C@H]1CC(=O)NN=C1c1ccc(OC2CCN(C3CCC3)CC2)cc1              clearance        1.38

Given the entry CC1(C)CC(c2ccc(OC3CCN(C4CCC4)CC3)cc2)=NNC1=O , report its measured clearance. 1.08

###

Please respond with reported Kp at 6 h for every item in the list.
Experiment: Ratio drug uptake in brain to plasma of rat at 10 mg/kg, ip measured after 6 hrs
Format: ADME, organism-based
Design: dose 10 mg/kg, route intraperitoneal
Settings: read-out: BPR
Numbers only.

Past entries and their recorded results:
In [3]: df
Out[3]:
                            chemical_smiles  test_value
0  CC1(C)CC(c2ccc(OC3CCN(C4CCC4)CC3)cc2)=NNC1=O           4
1  O=c1ccc(-c2ccc(OC3CCN(C4CCC4)CC3)cc2)n[nH]1         1.9

Could you now look at the following molecule, please?
Form field: reported Kp at 6 h of C[C@H]1CC(=O)NN=C1c1ccc(OC2CCN(C3CCC3)CC2)cc1 5.3

###

Molecular target: Cytochrome P450 1A2 (Homo sapiens, UniProt P05177)
Sequence (P05177 whole entry): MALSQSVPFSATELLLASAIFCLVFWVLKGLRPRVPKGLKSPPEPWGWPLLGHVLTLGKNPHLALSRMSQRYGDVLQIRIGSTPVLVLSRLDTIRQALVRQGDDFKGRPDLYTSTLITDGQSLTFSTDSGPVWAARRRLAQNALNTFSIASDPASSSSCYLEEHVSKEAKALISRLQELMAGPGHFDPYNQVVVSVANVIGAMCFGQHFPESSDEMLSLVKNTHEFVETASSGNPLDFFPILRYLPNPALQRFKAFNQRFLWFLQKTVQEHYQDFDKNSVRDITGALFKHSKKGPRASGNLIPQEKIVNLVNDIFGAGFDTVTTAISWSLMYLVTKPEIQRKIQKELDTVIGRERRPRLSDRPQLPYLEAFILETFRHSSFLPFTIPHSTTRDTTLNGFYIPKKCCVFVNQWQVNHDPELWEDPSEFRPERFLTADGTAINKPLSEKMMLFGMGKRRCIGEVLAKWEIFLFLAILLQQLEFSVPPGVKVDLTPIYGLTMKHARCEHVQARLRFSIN
pIC50: −log10 of the molar value.
experimental endpoint: pIC50

Look at this compound and give its reported pIC50. O=c1ccc(-c2ccc(OC3CCN(C4CCC4)CC3)cc2)n[nH]1 < 4.52

###

Assay: Half life in dog liver microsomes
Format: ADME, Canis lupus familiaris, Microsome
experimental endpoint: half-life

>>> print(df.to_string())
                            chemical_smiles  test_value
0  O=c1ccc(-c2ccc(OC3CCN(C4CCC4)CC3)cc2)n[nH]1    > 40 min

Okay, now this compound:
Which half-life value is on record for CC1(C)CC(c2ccc(OC3CCN(C4CCC4)CC3)cc2)=NNC1=O ? > 40 min

###

Would you mind telling me the reported pEC50 of each entry?
Molecular target: Histamine H3 receptor (Homo sapiens, UniProt Q9Y5N1)
Sequence (Q9Y5N1 whole entry): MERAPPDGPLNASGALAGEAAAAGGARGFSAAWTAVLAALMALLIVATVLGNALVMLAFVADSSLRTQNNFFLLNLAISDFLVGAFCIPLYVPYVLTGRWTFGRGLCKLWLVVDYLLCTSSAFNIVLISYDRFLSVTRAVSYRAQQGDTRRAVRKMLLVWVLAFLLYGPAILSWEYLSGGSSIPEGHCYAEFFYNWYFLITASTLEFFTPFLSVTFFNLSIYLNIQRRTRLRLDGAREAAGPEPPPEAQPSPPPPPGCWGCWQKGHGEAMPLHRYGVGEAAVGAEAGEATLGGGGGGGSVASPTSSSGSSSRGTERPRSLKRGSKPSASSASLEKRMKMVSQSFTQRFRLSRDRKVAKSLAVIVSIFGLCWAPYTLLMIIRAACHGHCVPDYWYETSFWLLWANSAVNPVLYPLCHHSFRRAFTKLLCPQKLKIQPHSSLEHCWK
Assay: Inverse agonist activity at human histamine H3 receptor assessed as inhibition of R-alpha-methylhistamine-induced [35S]GTPgammaS binding
Answers are plain numbers, as −log10 of the molar value.

>>> print(df.to_string())
                            chemical_smiles  test_value
0  CC1(C)CC(c2ccc(OC3CCN(C4CCC4)CC3)cc2)=NNC1=O        9.10

Let us examine a further case.
# input molecule: O=c1ccc(-c2ccc(OC3CCN(C4CCC4)CC3)cc2)n[nH]1 ; wanted: its pEC50 8.96

###

Assay: Drug uptake in rat brain at 5 mg/kg, po measured after 6 hrs
Format: ADME, organism-based
Design: dose 5 mg/kg, route oral
Details: read-out: Drug uptake
experimental endpoint: concentration at 6 h (nM)
One number for each entry, in nM.

>>> df
                            chemical_smiles  experimental_endpoint  units_label  test_value
0  O=c1ccc(-c2ccc(OC3CCN(C4CCC4)CC3)cc2)n[nH]1   concentration at 6 h           nM        1400

We now examine a further compound.
Item CC1(C)CC(c2ccc(OC3CCN(C4CCC4)CC3)cc2)=NNC1=O has what recorded concentration at 6 h? 2100
